# protocol_notes: soluble on expression in E. coli; label from the status in PepcDB or PDB records
measurement_label: soluble on expression in E. coli

>>> obs_value("MSLNSEWGKFALWLKHQRISPAELLVPQPQEKLTGWSDPRISQERILGLLARGHSLALAVDKWQRAGLWILTRGDADYPVRLKNRLRTDAPPVLFGCGNKALLQAEGMAIVGSRDAPTDDLRYTQQLAAKLAQQGICVISGGARGIDECAMASALEAGGTAVGVLADSLLKTSTLVKWREGLIAGNLVLISPFYPEVRFTVGNAMARNKYIYCLAESAMVVRAGMTGGTITGAMEALKHQWLPVQVKPNQDMQSANSRLVENGASWSAEQAENVTIRLPDVPGLMYDRAEGHHHHHH")
"soluble"
>>> obs_value("MSLVMWLMAHSEKLEDLLEGKPVVIIEDGELAWSKLNNSNMTEFEFFMELRLRGVEQLGQVRLAILETNGQISVYFFEDDKVKPGLLILPSDCTQRYKVVPESADYACIRCSEIIHMNAGEKQLCPRCANPEWTKASRAKRVTEGHHHHHH")
"soluble"
>>> obs_value("MHHHHHHSSGVDLGTENLYFQSMENRELTYITNSIAEAQRVMAAMLADERLLATVRKVADACIASIAQGGKVLLAGNGGSAADAQHIAGEFVSRFAFDRPGLPAVALTTDTSILTAIGNDYGYEKLFSRQVQALGNEGDVLIGYSTSGKSPNILAAFREAKAKGMTCVGFTGNRGGEMRELCDLLLEVPSADTPKIQEGHLVLGHIVCGLVEHSIFGKQ")
"soluble"

====

# protocol_notes: soluble on expression in E. coli; label from the status in PepcDB or PDB records
measurement_label: soluble on expression in E. coli

>>> obs_value("MVMEDNESCASRVIFDALPTSQATMDRRERIKMEVFDEVLRRLRQSDIEDAHLPGFEDDLWNHFNRLPARYALDVNVERAEDVLMHKRLLHSAYDPQNRPAIEVHLVQVQPAGISADLDSTSNDAGHSSPTRKSIHPPPAFGSSPNLEALALAASLSQDEDADNSVHNNSLYSRPLHEITFSTEDKPKLLFQLTALLAELGLNIQEAHAFSTTDGYSLDVFVVDGWPYEETERLRISLEKEAAKIELQRPDFSEIIEQLQEIAKEVGEEGEEKKKSSTGLGGGIFAALRRSTTHH")
"soluble"
>>> obs_value("MLENRLYKRSDFWKLFSRKYKLTKTIEHMMIDSIDIQENDRILEIGIGNGTVFKSITKKLKKGSLKSIDPSKRKVRQISRANRKNMGNGEVFHGYPEDIPFDDRTFNKVFSLHTVQSCTDIRLALREIYRVLQIDGRFYISIDTNTGEKEKTYIQLLKDQHFRDLSVIRRASCLCIVAVKLEHHHHHH")
"soluble"

====

# protocol_notes: soluble on expression in E. coli; label from the status in PepcDB or PDB records
measurement_label: soluble on expression in E. coli

>>> obs_value("MGSDKIHHHHHHMLLKPDQRLKLDDTDDNLFYAYPRFVTHVDEGFIQQLTDLYRERLQPNTRILDMMSSWVSHLPEEIKFAHVEGHGLNAEELGRNPQLNHYFVQNLNENPGLPLPDQEFDAVLNCVSVQYLQYPEAVFSEIHRILKPGGVAIISFSNRMFYQKAIQAWRDASEPGRLELVKRYFASVPGFSTPEIIARKSTAPNFLQWLGAPGGDPFYAAIAHREGFA")
"not soluble"
>>> obs_value("MRIFLNTVHLFALCAAAAIATEESTTPKPASWKFGTIAGEPDDYTNSTAVQVNNFKECIAKCSAIFDCIIASQKSKSEPCNLFLWNSVTKVKRAESGGEGQTAFRVFTEQPRCKLSMDELLNGKKYQIYKNDTEHYIWTINKTEDGWAMEYSKTILNNIIHCNDPDAYKYPGVRGCYKIVLPFKEDKKWESGMLSYPEAVGNCTLLGGDGLMTIPSSDFASQIKQNQNSTQSSTVYFIGLTRPDDSSNDNWVWTLPDLKIDSSPLPPWSFPPSLNVEAIWAENCALVSIEADPTKSLLHATLCQQWNRMSGYICHFAQ")
"not soluble"

====

# protocol_notes: soluble on expression in E. coli; label from the status in PepcDB or PDB records
measurement_label: soluble on expression in E. coli

>>> obs_value("AMATAPRPLREQYLHFQPISTRWHDNDIYGHVNNVTYYAFFDTAVNTYLIERGGLDIQGGEVIGLVVSSSCDYFAPVAFPQRIEMGLRVARLGNSSVQYELALFLEGQREACAAGRFVHVFVERRSSRPVAIPQELRDALAALQSSAQ")
"soluble"
>>> obs_value("MAHHHHHHMEEHPKILSIAGSDSCAGAGMQADLKTAMSLGCHCCTILVVLTAQNTKEVKSIIEVDEKFIVEQLDAIFTDITIEVVKLGVLYSKKIISLIHNYITNINKMREKKLLVVFDPVFVSSSGCMLVENLDYVKYALDLICPLSCIITPNFYECKVILEALNFNIDINNMRTSDLCKLVTEKLNINACLFKSCNIDINTEDENKLYAVDHLCIKNDNDYDTKIKQNISYDVYKLKSKRNPQKDIHGTGCTLSTAISCFLSKKYDIIQACIESKKYIYNCINYAYDLGSKSQGLNHLKAAQHLTDFRELQVIKVD")
"soluble"
>>> obs_value("MGSDKIHHHHHHMNDNAERRYRRPSYRITLDEQDITPRINGRLIRLRLRSQRGLEADQLDLTLSDHDGALALPRRGVSLRVAYGWQDDGLIDKGLFTVDEVQHSGTPDQITIRARSADMRGRLPGKRSRSWHDITVGEIIDTIAKRHTLEPVVGDTVRGIRIGHIDQTEESDLNFLTRLGERFDAVATVKAARLLFTQAGEALTASGLAMPSVTLTRRDGDRHRYSATDRDTYTGVIAYWNDKANAKRQRVIAGSDEDAKELRPTYATEADALDAAKAEWRRVQRGEATFKITLAYGRADILPESPLTASGFKPDIDATPWLVTEVEDSLDDNGFGTRVQCEVRGGAAET")
"not soluble"
>>> obs_value("MAEKFIKHTGLVVPLDAANVDTDAIIPKQFLQKVTRTGFGAHLFNDWRFLDEKGQQPNPDFVLNFSQYQGASILLARENFGCGSSREHAPWALTDYGFKVVIAPSFADIFYGNSFNNQLLPVKLSDAEVDELFALVKANPGIHFDVDLEAQEVKAGEKTYRFTIDAFRRHCMMNGLDSIGLTLQHDDAIAAYEAKQPAFMR")
"not soluble"
>>> obs_value("MASTGVERRKPLENKVALVTASTDGIGLAIARRLAQDGAHVVVSSRKQENVDRTVATLQGEGLSVTGTVCHVGKAEDRERLVAMAVNLHGGVDILVSNAAVNPFFGNIIDATEEVWDKILHVNVKATVLMTKAVVPEMEKRGGGSVLIVSSVGAYHPFPNLGPYNVSKTALLGLTKNLAVELAPRNIRVNCLAPGLIKTNFSQVLWMDKARKEYMKESLRIRRLGNPEDCAGIVSFLCSEDASYITGETVVVGGGTASRL")
"soluble"

For the next question, use this sequence.
Respond only with soluble on expression in E. coli recorded for LDEYQVSQDRLVESEERYRQLVESAPDAVLIHCDGRYVFANPAALRLYGADTADQLLGREITDFVHPNSRQVVAERIKLLYQERSPAPLCEQQIVRLDGTVVDVEVVGIPYSHQGRPAVQAVLREIT
not soluble

====

# protocol_notes: soluble on expression in E. coli; label from the status in PepcDB or PDB records
measurement_label: soluble on expression in E. coli

>>> obs_value("MDSHQQPYASQAQADTTLFPEQTRESLQALAVKLQPLIEGHRLDNLVDLLSLLSDIVDLLDPAMVDRLAQLFEQVTSVGWSVGNAVRVAKAELLREQPPSLKDLLRLLRDADSRRGLALVLGSLRSLGRQLAAEQEVAHGA")
"not soluble"
>>> obs_value("SATKELDLLADTAIAETEKPLDLGLDDSKTHAFLFTATWCDWYFKDSRPTASQQCISAQNSVNNLTKKFDKFAWQGIISRLWTGPSELANYTKKYQVKHPIAIDVSNSMFHQYGIKEFPSLVVVKNGEVILKTSDFSKPESLAKQLSKL")
"not soluble"
>>> obs_value("ILKELENLSPEEAAHQKAVVETLLQEDPWRVAKMVKSYLQQHNIPQREVVDTTGLNQSHLSQHLNKGTPMKTQKRAALYTWYVRKQREVAQQFTHAGQGGLIEEPTGDELPTKKGRRNRFKWGPASQQILFQAYERQKNPSKEERETLVEECNRAECIQRGVSPSQAQGLGSNLVTEVRVYNWFANRRKEEAFR")
"soluble"
>>> obs_value("MGGAERVMATLANEFVKRGHQVRLVTLKKAVSAYELDKRVEFIGGGADINSGNFLIKRIQMISAVIKGTLFYRRQLREYKPDIILSFLTYTNLLSVINNRISRVKYPVVVSERCDPRKRSKLLIKLCNIVYPLADCIVCQSKVIQDYFLNKNPKSVTKVIPNPVNEECINKEEIIKRRKLIVAVGRLSNQKNYDLLIDAFSDIANEYSEYRLEIYGEGPERERLQKKINRLGLNDRIQLMGTKTNVMKHIADAQLFVMSSNFEGFPNALAEAMASGLPVISTNFPSGVAKELIIDGENGYVVDINNREQMADAMRKILGDPLTITKMSKNNVLLREKLNVKTVANMWENLFNDILEKRTKNEKN")
"not soluble"
>>> obs_value("MSLSPTKTRRILFLLPYVADLSVGDFSKGLNPVMQDKQIDVMMTTLDFLQNKTAKELINEFDGLIYYALDTEQHLDLLFELSLKEFPVVILDKKIYELPFPTVLSDNFQGGALAASYLIEQGHSKIAYLFGTQTHPQSVRQRYLGYLEALDKAGLTFHTSLDDKSATLDELLSYITKYEVTAFVCENDVVAIQTMNLLRQHGYHIPEDFSIIGFDDIQAAALVDPPLTTIAQDFEQLGKLAGDALVTWLETKDRPSDSKFPVSFIKRQSTKEGHHHHHH")
"soluble"

For the next question, use this sequence.
Respond only with soluble on expression in E. coli recorded for MGSDKIHHHHHHMKKYYLLSLISASLIGATCIQCTSPKQKSGENTLPQKSELFVSLPDYCPTPDGMAIAPNGDLILACPNFADITQPACLMRITKDGAVSKWLDVPVLEETGWASPMGLAFNEEGDLFISDNQGWSGAEKAKNKGRVLRLKFENDQLKETITVASGMEHPNGIRIRNGKLYVTQSSLSQIKDPSGLLVSGVYCFDMNDRDIAVTNTSADQNLLTTVITKNPEVQYGLDGIVFNEAGDLFVGNFGDGAIHRIKMDAEGKVVSNDVWAQDTTQLRTTDGMCIDDKGNIWVADFSANAVARVDKDGKIQRIAQSPDCDGSDGGLDQPGEPIVWNGQVIVSCFDLVTGPDKVNTKHDKPFTLAKLSLE
not soluble

Values from the DeepSol protein solubility set
